Target: Cytochrome P450 3A4 (Homo sapiens)
Assay: Cytochrome panel assay with activity outcomes; as to activity, negative = inhibition: % is scaled to controls: 0 for no effect and ±100 for the full control effect
Conditions: recombinant CYP, pro-luciferin dealkylation, luminescence, p450-cyp3a4; series mostly up to 57.1 µM
The whole screen tested about 16,000 compounds, of which about 5,100 (32%) were called active. About 25% were inconclusive and are not listed. The list shows a part of the results.
Catalogue of activity, negative = inhibition values

* C[C@H]1[C@H](C)OC(=O)C[C@H](O)C[C@H](O)C[C@H](O)CC[C@H](O)[C@H](O)CC(=O)C[C@H](O)[C@H](C(=O)O)[C@H](O)C[C@H](O[C@@H]2O[C@@H](C)[C@H](O)[C@@H](N)[C@@H]2O)C=CC=CC=CC=CCCC=CC=C[C@@](C)(O)[C@H]1O | 7.28% [at 11.4 µM] (inactive)
* Cc1cc(N)c2cc(NC(=O)Nc3ccc4nc(C)cc(N)c4c3)ccc2n1 | -7.21% [at 11.4 µM] (inactive)
* COc1cccc(CSCC(=O)O)c1 | -5.22% [at 11.4 µM] (inactive)
* NC(N)=NC(N)=Nc1ccc(S(N)(=O)=O)cc1 | -13.3% [at 11.4 µM] (inactive)
* O=C1C[C@H]2C(=O)[C@@H]1[C@@H](C(=O)O)[C@H]2C(=O)O | -3.12% [at 11.4 µM] (inactive)

(Q) Requested field: activity, negative = inhibition. Item: `C[C@H]1/C=C\CC(=O)OC[C@H](C)C(=O)N2CCC[C@@H]2C(=O)OC1`
(A) -17.6% [at 11.4 µM] (inactive)

(Q) Requested field: activity, negative = inhibition. Item: CCCCCCC(C)n1cc(C(C)=O)c(=O)[nH]c1=O (centres undefined)
(A) 12.8% [at 2.29 µM] (inactive)

(Q) Requested field: activity, negative = inhibition. Item: `N=c1ccn2c(n1)O[C@H]1[C@@H](OP(=O)(O)O)[C@H](CO)O[C@H]12`
(A) -6.24% [at 11.4 µM] (inactive)

(Q) Requested field: activity, negative = inhibition. Item: `O=C(c1ccccc1)c1ccc(OCCn2cnc3ccccc3c2=O)cc1`
(A) 26.6% [at 2.29 µM] (inactive)

====

Target: Cytochrome P450 3A4 (Homo sapiens) (UniProt P08684)
Sequence (P08684 whole entry, looked up): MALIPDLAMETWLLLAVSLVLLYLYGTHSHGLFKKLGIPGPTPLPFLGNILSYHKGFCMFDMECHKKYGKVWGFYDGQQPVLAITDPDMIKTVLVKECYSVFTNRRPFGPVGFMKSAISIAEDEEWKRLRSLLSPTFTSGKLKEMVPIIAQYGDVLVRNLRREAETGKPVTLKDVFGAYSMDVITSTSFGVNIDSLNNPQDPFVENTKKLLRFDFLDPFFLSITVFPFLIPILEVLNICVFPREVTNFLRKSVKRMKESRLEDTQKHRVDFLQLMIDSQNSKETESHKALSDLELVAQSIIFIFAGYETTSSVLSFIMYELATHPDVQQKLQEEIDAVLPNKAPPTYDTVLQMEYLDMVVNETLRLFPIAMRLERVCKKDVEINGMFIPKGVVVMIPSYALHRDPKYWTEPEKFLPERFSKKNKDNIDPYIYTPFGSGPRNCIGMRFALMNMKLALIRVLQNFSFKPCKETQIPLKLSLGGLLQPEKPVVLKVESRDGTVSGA
Assay: Cytochrome panel assay with activity outcomes
Settings: recombinant CYP, pro-luciferin dealkylation, luminescence, p450-cyp3a4; series mostly up to 57.1 µM
Screen size: about 16,000 compounds; about 5,100 (32%) were called active. Roughly 25% stayed inconclusive and do not appear here. Calls follow the shape of the dose curve; as a rule, active = well fitted curve in the direction sought with a large enough effect; inconclusive = small, poorly fitted or top-dose-only effect, or effect the other way; inactive = no such curve, though single readings can be large or run the other way. The list shows a part of the results.
I would appreciate it if you answered using one of these outcomes: Yes = active, No = inactive

(Q) Each molecule tested received a call. Report the one for `Cc1ccc(C)c(Cn2c(C(=O)OC(C)C)cc3c2ccn3C)c1` .
(A) Yes

====

Target: Cytochrome P450 3A4 (Homo sapiens)
Test: Cytochrome panel assay with activity outcomes
Details: recombinant CYP, pro-luciferin dealkylation, luminescence, p450-cyp3a4; series mostly up to 57.1 µM
The whole screen tested about 16,000 compounds, of which about 5,100 (32%) were called active. Roughly 25% stayed inconclusive and do not appear here. Calls come from the whole dose curve; as a rule, active = well fitted curve in the direction sought with a large enough effect; inconclusive = small, poorly fitted or top-dose-only effect, or effect the other way; inactive = no such curve, though single readings can be large or run the other way. The list shows a part of the results.
I would appreciate it if you answered using one of these outcomes: Y for active, N for inactive

(Q) Each compound tested received a call. Report the one for `COc1ccc(/C(C)=N/NC(=O)c2ccc(N(C)C)cc2)cc1` .
(A) N

====

Target: Cytochrome P450 3A4 (Homo sapiens) (UniProt P08684)
Experiment: Cytochrome panel assay with activity outcomes
Conditions: recombinant CYP, pro-luciferin dealkylation, luminescence, p450-cyp3a4; series mostly up to 57.1 µM
Screen size: about 16,000 compounds; about 5,100 (32%) were called active. Roughly 25% stayed inconclusive and do not appear here. The call rests on the fitted dose curve; in most records, active means well fitted curve in the direction sought with a large enough effect; inconclusive means small, poorly fitted or top-dose-only effect, or effect the other way; inactive means no such curve, though single readings can be large or run the other way. Some of the results follow.
I would appreciate it if you answered using one of these outcomes: active, inactive

* Cc1nc2cncnc2n(C2CC2)c1=O | active
* Cc1nc2cnc(N(C)C)nc2n(C2CC2)c1=O | inactive
* CN(C)c1ncc2nc(-c3ccc(F)cc3)c(=O)n(CCc3ccccc3)c2n1 | inactive

(Q) Each compound tested received a call. Report the one for `O=c1c(-c2cccc(Cl)c2)nc2cncnc2n1Cc1ccccc1` .
(A) inactive

(Q) Each compound tested received a call. Report the one for CC1=C(C(N)=O)C(c2ccccn2)n2nc(SCc3ccccc3Cl)nc2N1 (configuration not stated) .
(A) active

(Q) Each compound tested received a call. Report the one for CC1(C)OC(=O)N(Cc2ccco2)C1(C)O (configuration not stated) .
(A) inactive

(Q) Each compound tested received a call. Report the one for `O=c1c(-c2ccc(F)cc2)nc2cncnc2n1C1CC1` .
(A) inactive

(Q) Each compound tested received a call. Report the one for `COc1ccccc1CCn1c(=O)c(-c2ccc(F)cc2)nc2cncnc21` .
(A) active

(Q) Each compound tested received a call. Report the one for `COc1ccccc1CCn1c(=O)c(-c2cccc(Cl)c2)nc2cncnc21` .
(A) active

(Q) Each compound tested received a call. Report the one for Cc1cccc(NC(=S)NNC(=O)CC(C)O)c1C (configuration not stated) .
(A) inactive

(Q) Each compound tested received a call. Report the one for CCc1cc(C(=O)NNC(=S)NCC2CCCO2)cs1 (configuration not stated) .
(A) inactive

(Q) Each compound tested received a call. Report the one for `COc1ccccc1CCn1c(=O)c(-c2ccc(Cl)cc2)nc2cncnc21` .
(A) active

====

Molecular target: Cytochrome P450 3A4 (Homo sapiens) (UniProt P08684)
Test: Cytochrome panel assay with activity outcomes
Conditions: recombinant CYP, pro-luciferin dealkylation, luminescence, p450-cyp3a4; series mostly up to 57.1 µM
About 5,100 (32%) of roughly 16,000 compounds were called active. Roughly 25% stayed inconclusive and do not appear here. The call rests on the fitted dose curve; in most records, active means well fitted curve in the direction sought with a large enough effect; inconclusive means small, poorly fitted or top-dose-only effect, or effect the other way; inactive means no such curve, though single readings can be large or run the other way. Some of the results follow.
I would appreciate it if you answered using one of these outcomes: active, inactive

Answered cases to consult:
* CCC/C=C(\CCC)C(NC(=O)Cc1ccccc1)c1ccc(C(=O)OC)cc1 (stereo unspecified) | active
* CCC/C=C(\CCC)C(NC(=O)Oc1ccc(F)cc1)c1ccc(C(=O)OC)cc1 (stereo unspecified) | inactive
* CCCCN=C1N/C(=C\c2ccco2)C(=O)N1c1ccccc1 | inactive
* COC(Cn1c(C)c(C(C)=O)c(C(C)=O)c1C)OC | inactive
* CCC/C=C(\CCC)C(NC(=O)C(C)(C)C)c1ccc(C(=O)OC)cc1 (stereo unspecified) | active
* CCOC(=O)NC(NC(=O)OCC)C(=O)c1ccc(F)cc1 | inactive
* CCOc1cc(/C=C2/SC(=O)N(CC(=O)N3CCc4ccccc4C3)C2=O)ccc1OCC(=O)O | inactive
* O=S(=O)(C=C(c1ccccc1)c1ccccc1)c1ccccc1 | inactive

(Q) Each compound tested received a call. Report the one for `c1ccc2oc(C3=NCCN3)cc2c1` .
(A) inactive

(Q) Each compound tested received a call. Report the one for CCC/C=C(\CCC)C(NC(=O)OCC(C)C)c1ccc(C(=O)OC)cc1 (stereo unspecified) .
(A) active

(Q) Each compound tested received a call. Report the one for `O=C(CCS(=O)(=O)c1cccc2nsnc12)NC1CCCCC1` .
(A) active

====

Target: Cytochrome P450 3A4 (Homo sapiens)
Assay: Cytochrome panel assay with activity outcomes; as to activity, negative = inhibition: % is scaled to controls: 0 for no effect and ±100 for the full control effect
Conditions: recombinant CYP, pro-luciferin dealkylation, luminescence, p450-cyp3a4; series mostly up to 57.1 µM
Experimental: The P450 gene superfamily is involved in the metabolism and clearance of xenobiotics. This assay used various human CYP P450 isozymes to measure the dealkylation of various pro-luciferin substrates to luciferin. The luciferin is then measured by luminescence after the addition of a luciferase detection reagent. […] Inhibitors and some substrates limit the production of luciferin, and decrease measured luminescence. […] 8, Detection, 1 sec, ViewLux luminescent read […]
The whole screen tested about 16,000 compounds, of which about 5,100 (32%) were called active. Not shown: some 25% with an inconclusive outcome. Some of the results follow.
parameterMeasured: activity, negative = inhibition

As a guide, the following entries are already answered.
• CCCCCSc1nncc(=O)[nH]1 = 2.96% [at 11.4 µM] (inactive)
• COc1cc(/C=N\Nc2nc3ccccc3[nH]2)cc(OC)c1OC = -13.5% [at 2.29 µM] (inactive)
• Fc1cccc(F)c1C(Nc1nncs1)Nc1nncs1 = -16.1% [at 11.4 µM] (inactive)

(Q) Enter reported activity, negative = inhibition observed with Cytochrome P450 3A4 (Homo sapiens) for `O=C(NCCc1ccccc1)c1noc2c1CCc1ccccc1-2`
(A) -2.2% [at 2.29 µM] (inactive)

(Q) Enter reported activity, negative = inhibition observed with Cytochrome P450 3A4 (Homo sapiens) for `CC[C@@H](CS(=O)(=O)O)[N+](=O)[O-]`
(A) -18% [at 11.4 µM] (inactive)

(Q) Enter reported activity, negative = inhibition observed with Cytochrome P450 3A4 (Homo sapiens) for `CC(=O)c1c(N2CCC(C(N)=O)CC2)nc(=S)n(-c2ccccc2)c1C`
(A) 28.2% [at 2.29 µM] (inactive)
